# Test system: SNB-19 CNS
# ASSAY_REMARKS: NCI tumour cell line growth inhibition, 48 h; in the data active means GI50 below about 0.43 µM; inactive means the rest
Outcomes: Y = active, N = inactive

COMPOUND | CLASS
COc1cc2c(cc1OCCCN1CCN(CCCOc3cc4c(cc3OC)C(=O)C3CCC[C@H]3C=N4)CC1)N=C[C@@H]1CCCC1C2=O (some centres undefined) | N
COc1cc2nc(-c3ccc(Cl)cc3)cc(OCCCN3CCC(O)CC3)c2cc1OC | N
CCN(CC)c1ccc(/C=C/C2=[N+](C)c3ccccc3C2(C)C)cc1 | Y
O=C1c2cccnc2-c2nc(-c3ccccc3)cc3c2c1nc1ccccc13 | N
CC1OC(OC2C(OC3CCC4(C)C(CCC5(C)C4CC=C4C6CC(C)(C)CCC6(CO)C(O)CC45C)C3(C)C)OC(C(=O)O)C(OC3OC(COC4OC(CO)C(O)C(O)C4O)C(O)C(O)C3O)C2O)C(O)C(O)C1O (centres undefined) | N
Nc1nccc(C#Cc2cncnc2Nc2ccc(OCc3cccc(F)c3)c(Cl)c2)n1 | N
N=C(N)c1ccc(-c2ccc(-c3ccccc3)o2)cc1 | N
Oc1ccc(-c2nc(-c3ccc(F)cc3)c(-c3ccncc3)[nH]2)cc1 | N
COc1cc2c(c(Br)c1N)-c1cc(Br)c(N)cc1C2=O | N

====

# System: MALME-3M melanoma
# ASSAY_REMARKS: NCI tumour cell line growth inhibition, 48 h

SMI | READING_QUALIFIER | TGI / µM
COc1ccc2c(c1)C(=O)/C(=C/c1ccc(OCC(=O)c3ccc(Cl)cc3)cc1)O2 | = | 42.3
C/C(=N\NC(=S)Nc1ccccc1)c1ccccn1 | = | 5.39
COc1ccc([N+](=O)[O-])cc1[I+]c1cc([N+](=O)[O-])ccc1OC | = | 17.1
NC(N)=NCCCS(=O)(=O)Nc1ccc(Nc2c3ccccc3nc3cc([N+](=O)[O-])ccc23)cc1 | = | 37.2
C1=C(N2CCOCC2)/C(=C2\SC(=Nc3ccccc3)C(=Nc3ccccc3)N2c2ccccc2)CC1 | > | 100

====

Below, each entry is listed alongside its reported TGI.
# Tested on: IGROV1 ovarian
# ASSAY_REMARKS: NCI tumour cell line growth inhibition, 48 h

COMPOUND | TESTED_ON | TGI
COc1ccc(C=O)c(N(C)C(=O)C(C)(C)C)c1 | IGROV1 ovarian | > 100 µM
CC(=O)NC1C(OCc2ccccc2)OC(CO)C(O)C1OC(C)C(=O)NC(C(=O)NC(CCC(=O)Nc1ccc2c(c1)CN1C(=O)c3ccccc3C1=N2)C(N)=O)C(C)C (stereo not given) | IGROV1 ovarian | > 100 µM
COC(=O)/C=C1/OC(c2ccccc2)=CC1=O | IGROV1 ovarian | 33.9 µM
COc1ccc(C(NCCNC(c2ccc(OC)c(OC)c2)c2cc3c(cc2O)OCO3)c2cc3c(cc2O)OCO3)cc1OC (stereo not given) | IGROV1 ovarian | 7.67 µM
CCCN=C1S/C(=C/c2ccc(OC)c(OC)c2)C(=O)N1c1ccccc1 | IGROV1 ovarian | > 100 µM
Brc1ccc(C2(N3CCCCC3)CCCCC2)s1 | IGROV1 ovarian | > 100 µM
N#CCCN(CCC#N)c1ccc(/C=C2\N=C(c3ccccc3)N(NC(=O)c3ccncc3)C2=O)cc1 | IGROV1 ovarian | > 100 µM
CC(C)c1cccc(C(C)C)c1NC(=S)Nc1ccccc1 | IGROV1 ovarian | > 100 µM
CCCCCNC(=O)C1C(=O)N(CCCCC)C(=O)/C1=N\N (stereo not given) | IGROV1 ovarian | > 100 µM
CCOP(=O)(OCC)OC1CC(n2cnc3c(N(CC)CC)ncnc32)OC1CO[Si](C)(C)C(C)(C)C (stereo not given) | IGROV1 ovarian | 32.3 µM
CSC(=S)Nc1cc(C)ccn1 | IGROV1 ovarian | 58 µM
COC(=O)/C=C(\S/C(=C(/c1ccccc1)n1cc(C(=O)OC)c(C(=O)OC)n1)c1ccccc1)C(=O)OC | IGROV1 ovarian | 31.9 µM
CC(=O)[CH-]C(=O)c1ccccc1.CC(=O)[CH-]C(=O)c1ccccc1.[O-]Cc1cccs1.[O-]Cc1cccs1.[Ti+4] | IGROV1 ovarian | > 100 µM
Cc1oc2nc(N(C)C)n3c(C)nnc3c2c1C | IGROV1 ovarian | > 100 µM
COC(=O)[C@H]1[C@H](OC(=O)[C@@H](OC)c2ccccc2)ON2CC[C@@H](OC(=O)c3ccccc3)[C@H]12 | IGROV1 ovarian | > 100 µM
Cc1ccc(CCCC(=O)O)cc1C | IGROV1 ovarian | > 100 µM
CC(=O)Nc1ccccc1S(=O)(=O)c1c(-c2c(C)c(Cl)c(C)c(Cl)c2C)noc1C | IGROV1 ovarian | > 100 µM
Nc1nc(Cl)cc(NCC2(CO)CC(O)C2)n1 (stereo not given) | IGROV1 ovarian | > 100 µM
CC[C@]12C=CCN3CC[C@]4(C(=C(C(=O)OC)C1)Nc1ccccc14)[C@@H]32 | IGROV1 ovarian | 20.6 µM
CCOC(=O)c1c(C)n(-c2ccc(C)cc2)c2c1cc(O)c1[nH]c3c(c12)CCCC3 | IGROV1 ovarian | 33.9 µM

====

# Tested on: NCI-H522 lung
# ASSAY_REMARKS: NCI tumour cell line growth inhibition, 48 h; in the data active = GI50 below about 0.43 µM; inactive = the rest
Possible outcomes: active, inactive

COMPOUND | TESTED_ON | CLASS
C#CCSc1nnnn1-c1ccc(Br)c(C)c1 | NCI-H522 lung | inactive
Nc1nccc(C#Cc2cncnc2Nc2ccc(OCc3cccc(F)c3)c(Cl)c2)n1 | NCI-H522 lung | inactive
C[C@@H](Oc1cc(-n2cnc3ccc(OCC4CCN(C)CC4)cc32)sc1C(N)=O)c1ccccc1C(F)(F)F | NCI-H522 lung | active
CCN1C(=O)N(CC)C2C1NN=c1s/c(=C\c3ccc([N+](=O)[O-])cc3)c(=O)n12 (stereo unspecified) | NCI-H522 lung | active
CN(C)c1ccc(N=C(C#N)c2nc(N)nc(N3CCOCC3)n2)cc1 | NCI-H522 lung | inactive
Cn1cc(-c2nonc2-c2cn(C)c3ccc(Br)cc23)c2ccccc21 | NCI-H522 lung | inactive
CCN(CC)c1ccc(/C=C/C2=[N+](C)c3ccccc3C2(C)C)cc1 | NCI-H522 lung | active
O=C1c2cccnc2-c2nc(-c3ccccc3)cc3c2c1nc1ccccc13 | NCI-H522 lung | inactive
CC[C@]12C=CCN3CC[C@]4(C(=C(C(=O)OC)C1)Nc1ccccc14)[C@@H]32 | NCI-H522 lung | inactive
Cc1ccc2c(c1)/C(=N\N=C/c1cn(C(C)C)c3ccccc13)C(=O)N2 | NCI-H522 lung | inactive
CC1OC(OC2C(OC3CCC4(C)C(CCC5(C)C4CC=C4C6CC(C)(C)CCC6(CO)C(O)CC45C)C3(C)C)OC(C(=O)O)C(OC3OC(COC4OC(CO)C(O)C(O)C4O)C(O)C(O)C3O)C2O)C(O)C(O)C1O (stereo unspecified) | NCI-H522 lung | inactive
c1ccc(CNc2nc(Nc3ccc(-c4nc5ccccc5[nH]4)cc3)c3cn[nH]c3n2)cc1 | NCI-H522 lung | inactive
COc1cc2c(c(Br)c1N)-c1cc(Br)c(N)cc1C2=O | NCI-H522 lung | inactive
O=C1/C(=C\c2ccccc2)CN(C(=O)c2ccccc2F)C/C1=C\c1ccccc1 | NCI-H522 lung | inactive
COc1cc(-c2cn(-c3ccc(Cl)cc3)c(=O)n2-c2ccccc2)cc(OC)c1OC | NCI-H522 lung | inactive
O=C(O)Cc1ccccc1 | NCI-H522 lung | inactive

====

# System: RPMI-8226 leukemia
# ASSAY_REMARKS: NCI tumour cell line growth inhibition, 48 h

MOLECULE | READING_QUALIFIER | TGI (µM)
CCC/C(Cl)=N/OC(=O)Nc1cccc(F)c1 | = | 8.08
COC(=O)/C=C(\S/C(=C(/c1ccccc1)n1cc(C(=O)OC)c(C(=O)OC)n1)c1ccccc1)C(=O)OC | = | 26.9
Cc1ccc(S(=O)(=O)OC(C=O)C(O)C(O)COC(c2ccccc2)(c2ccccc2)c2ccccc2)cc1 (stereo not given) | = | 36.9
Cc1cc2c(cc1-c1cc3c(cc1C)C(C(C)C)=C(O)C(=O)/C3=C\Nc1cccc3c(N)cccc13)/C(=C/Nc1cccc3c(N)cccc13)C(=O)C(O)=C2C(C)C | > | 100
Nc1nc(SCC(=O)c2ccccc2)nc2nc3c(c(-c4ccccc4)c12)CCCC3 | > | 100
COc1cc2c(cc1OCCCN1CCN(CCCOc3cc4c(cc3OC)C(=O)C3CCC[C@H]3C=N4)CC1)N=C[C@@H]1CCCC1C2=O (stereo not given in full) | = | 3.81
N/C(=N/O)c1cn(C2OC(CO)C(O)C2O)c2ncnc(NO)c12 (stereo not given) | = | 1.86
CC1=NN(c2ccccc2Cl)C2(C1)SCC(=O)N2c1nc2ccccc2s1 (stereo not given) | > | 100
Brc1ccc(C2(N3CCCCC3)CCCCC2)s1 | = | 39.5
Cn1c(=O)c2c(nc3n2C(CCl)CO3)n(C)c1=O (stereo not given) | > | 100
Cc1ccc2c(c1)C(=O)c1ccc(C)nc1C2=O | > | 100
C/C(O)=C/c1nc2sc(C)c(C)c2c(=O)s1 | > | 100
c1ccc(NC2(c3nnnn3C3CCCCC3)CCNCC2)cc1 | = | 59.6
COc1ccc(Br)c(CCCCC(=O)O)c1 | > | 100
CN(N=O)C(N)=NC(=O)c1ccccc1 | > | 100
CC1OC(OC2C(OC3CCC4(C)C(CCC5(C)C4CC=C4C6CC(C)(C)CCC6(CO)C(O)CC45C)C3(C)C)OC(C(=O)O)C(OC3OC(COC4OC(CO)C(O)C(O)C4O)C(O)C(O)C3O)C2O)C(O)C(O)C1O (stereo not given) | = | 23.5
COc1cccc2c(=O)c3c(O)c4cc(N(C)C)ccc4c(OC(C)=O)c3oc12 | = | 52.6
CCCCC[C@H]1CC=CC(=O)O1 | = | 19.3
CCCN=C1S/C(=C/c2ccc(OC)c(OC)c2)C(=O)N1c1ccccc1 | > | 100
Cn1cc(-c2ccc3c(c2)ncn3-c2ccc(CC(=O)Nc3cc(C(C)(C)C)on3)cc2)cn1 | > | 100
COc1ccc(C2=NN(c3ccc(S(N)(=O)=O)cc3)C(c3ccc(Cl)cc3)C2)c(O)c1 (stereo not given) | = | 6.71
CCN(CC)CCSc1nc2c([N+](=O)[O-])cccc2[nH]1 | > | 100
CC(C)=CCC/C(C)=C/CC/C(C)=C/C(O)c1ccccc1 (stereo not given) | = | 49.5
CCC1c2[nH]c3ccccc3c2C[C@H]2C(=O)NC(Cc3ccccc3)C(=O)N12 (stereo not given in full) | = | 51.3
CC1(C)OCC(C2OC(On3nnc4ccc(Cl)cc43)C3OC(C)(C)OC23)O1 (stereo not given) | > | 100
COC(=O)[C@@H](COC(=O)/C=C/c1ccc(OC(C)=O)c(OC(C)=O)c1)NC(=O)/C=C/c1ccc(OC(C)=O)c(OC(C)=O)c1 | > | 100
CCN1CCC(O)(c2ccccc2)C(C(=O)c2ccccc2)C1 (stereo not given) | = | 33.4
O=C1c2cc([N+](=O)[O-])cnc2S(=O)(=O)N1c1ccc(Oc2ccccc2)cc1 | > | 100
C=C1C(=O)C23C(O)C1CCC2C12CO[C@]3(O)[C@@H](O)C1C(C)(C)CCC2O (stereo not given in full) | > | 100
Nc1ncn([C@@H]2C=C(CO)C(O)C2O)c(=O)n1 (stereo not given in full) | > | 100
O=Cc1cc(O)ccc1Br | > | 36
CC/C(=C(/CC)c1ccc(OP(=O)([O-])[O-])cc1)c1ccc(OP(=O)([O-])[O-])cc1.N.N.N.N.[Pt+4].[Pt+4] | > | 100
COC(=O)C(NC(=O)C12CCC(C)(C(=O)O1)C2(C)C)c1cc(C(C)(C)C)c(O)c(C(C)(C)C)c1 (stereo not given) | > | 100
Cn1cc(-c2csc(-c3cn(C)c4ncccc34)n2)c2ccccc21 | = | 25.3
COC(=O)CC(CC(=O)C(=O)OC)C(=O)OC (stereo not given) | > | 100
Cc1nc(N=C(N)N)nc2ccc3ccccc3c12 | = | 7.36
COc1ccc(C(=O)Nc2ccccc2)cc1[N+](=O)[O-] | > | 100
COC(=O)Oc1nn(C(=O)OC)c(=O)c2ccccc12 (tested in a mixture with another compound) | > | 100
COC(=O)C12C3C=CC(O3)C1C1C=CC2O1 (stereo not given) | > | 100
O=C(Nc1ccc(-n2cc(-c3ccncc3)c(-c3ccc(O)c(Cl)c3)n2)cc1)c1ccc(Cl)c(Cl)c1 | = | 1.44
